# Assay method text: Oral bioavailability in Han Wistar rat at 1 mg/kg
# Type: ADME, organism-based
# Settings: in vivo
Note to self: values exactly at 40% are true. So bioavailability at or above 40% is true, below is false.

[
  {
    "Compound": "CCS(=O)(=O)c1ccc([C@@H](NC(C)=O)C(=O)Nc2cc(-c3cccnc3OCc3ccc(OC(F)(F)F)cc3)cs2)cc1",
    "Classification": "false"
  },
  {
    "Compound": "CCS(=O)(=O)c1ccc(CC(=O)Nc2cc(-c3cccnc3Oc3ccc(OC(F)(F)F)cc3)cs2)cc1",
    "Classification": "true"
  },
  {
    "Compound": "CCS(=O)(=O)c1ccc(CC(=O)Nc2cc(-c3cccnc3OCc3ccc(OC(F)(F)F)cc3)cs2)cc1",
    "Classification": "false"
  },
  {
    "Compound": "CCS(=O)(=O)c1ccc(C(NC(C)=O)C(=O)Nc2cc(-c3cc(C#N)cc(F)c3OC)cs2)cc1 (stereo unspecified)",
    "Classification": "false"
  },
  {
    "Compound": "CCS(=O)(=O)c1ccc(CC(=O)Nc2cc(-c3cc(C#N)cc(F)c3OC)cs2)cc1",
    "Classification": "true"
  },
  {
    "Compound": "CCS(=O)(=O)c1ccc(CC(=O)Nc2cc(-c3cc(C#N)cnc3OCC(F)(F)F)cs2)cc1",
    "Classification": "false"
  }
]

----------
# Assay method text: Oral absorption in Han Wistar rat at 1 mg/kg
# Type: ADME, organism-based
# Settings: in vivo, read-out: Fabs
Note to self: values exactly at 40% are 1 (yes). So Fa at or above 40% is 1 (yes), below is 0 (no).

[
  {
    "Compound": "CCS(=O)(=O)c1ccc(CC(=O)Nc2cc(-c3cc(C#N)cc(F)c3OC)cs2)cc1",
    "Classification": "1 (yes)"
  },
  {
    "Compound": "CCS(=O)(=O)c1ccc([C@@H](NC(C)=O)C(=O)Nc2cc(-c3cccnc3OCc3ccc(OC(F)(F)F)cc3)cs2)cc1",
    "Classification": "0 (no)"
  },
  {
    "Compound": "CCS(=O)(=O)c1ccc(CC(=O)Nc2cc(-c3cccnc3OCc3ccc(OC(F)(F)F)cc3)cs2)cc1",
    "Classification": "0 (no)"
  },
  {
    "Compound": "CCS(=O)(=O)c1ccc(CC(=O)Nc2cc(-c3cc(C#N)cnc3OCC(F)(F)F)cs2)cc1",
    "Classification": "0 (no)"
  },
  {
    "Compound": "CCS(=O)(=O)c1ccc(C(NC(C)=O)C(=O)Nc2cc(-c3cc(C#N)cc(F)c3OC)cs2)cc1 (stereo unspecified)",
    "Classification": "0 (no)"
  },
  {
    "Compound": "CCS(=O)(=O)c1ccc(CC(=O)Nc2cc(-c3cccnc3Oc3ccc(OC(F)(F)F)cc3)cs2)cc1",
    "Classification": "1 (yes)"
  }
]

----------
# Study system: Nuclear receptor ROR-alpha (Homo sapiens, UniProt P35398)
# Sequence (P35398 whole entry): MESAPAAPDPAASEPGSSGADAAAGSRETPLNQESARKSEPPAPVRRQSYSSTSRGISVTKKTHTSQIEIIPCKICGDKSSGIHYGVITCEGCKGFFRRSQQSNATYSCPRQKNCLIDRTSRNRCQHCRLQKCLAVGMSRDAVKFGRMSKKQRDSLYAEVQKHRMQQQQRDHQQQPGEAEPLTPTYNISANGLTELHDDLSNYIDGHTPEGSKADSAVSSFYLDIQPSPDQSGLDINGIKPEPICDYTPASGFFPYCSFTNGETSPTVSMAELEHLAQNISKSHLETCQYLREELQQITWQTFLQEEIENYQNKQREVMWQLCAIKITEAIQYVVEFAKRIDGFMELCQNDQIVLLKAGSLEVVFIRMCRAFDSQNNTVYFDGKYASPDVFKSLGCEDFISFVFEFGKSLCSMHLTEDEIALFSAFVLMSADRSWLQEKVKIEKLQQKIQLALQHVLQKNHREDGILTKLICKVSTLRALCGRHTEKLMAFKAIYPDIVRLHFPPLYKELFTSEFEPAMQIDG
pIC50: −log10 of the molar value.
Endpoint label: pIC50

[
  {
    "Input smiles": "CCS(=O)(=O)c1ccc(CC(=O)Nc2cc(-c3cc(C#N)cnc3OCC(F)(F)F)cs2)cc1",
    "Study system": "Nuclear receptor ROR-alpha (Homo sapiens, UniProt P35398)",
    "Observed result": 5.21
  },
  {
    "Input smiles": "CCS(=O)(=O)c1ccc(CC(=O)Nc2cc(-c3cccnc3Oc3ccc(OC(F)(F)F)cc3)cs2)cc1",
    "Study system": "Nuclear receptor ROR-alpha (Homo sapiens, UniProt P35398)",
    "Observed result": "< 4.48"
  },
  {
    "Input smiles": "CCS(=O)(=O)c1ccc(CC(=O)Nc2cc(-c3cccnc3OCc3ccc(OC(F)(F)F)cc3)cs2)cc1",
    "Study system": "Nuclear receptor ROR-alpha (Homo sapiens, UniProt P35398)",
    "Observed result": "< 4.48"
  }
]

Cited source for all entries: ChEMBL document CHEMBL4145688
